The reported numbers originate from ChEMBL document CHEMBL3272035.

Assay: Half life of the compound in DMF-phosphate buffer at pH 7.4 at 25 degC assessed as SH binding in presence of mercaptoacetic acid
Format: physicochemical
Details: DMF-phosphate buffer with mercaptoacetic acid
MEASURED METRIC: half-life

# lookup: half-life of C=C(CC)C(=O)c1ccc(OCC(=O)O)c(Cl)c1Cl
< 1 min

----------
Tested on: Canis familiaris
Experiment: Diuretic activity in mongrel dog anesthetized with sodium pentobarbital assessed as urine volume at 1 mg/kg, iv measured after 15 to 45 mins post dose (reference value: 1 to 4 ml/min)
Format: functional, Canis lupus familiaris
MEASURED METRIC: Activity (mL/min)
Give bare numbers, in mL/min.

- COMPOUND: "CC(=O)C(C(C)=O)C(SCCO)c1ccc(OCC(=O)O)c(Cl)c1Cl (stereo unspecified)"
  Activity (mL/min): 5
- COMPOUND: "CC(=O)C(C(C)=O)C(Sc1ccccc1C(=O)O)c1ccc(OCC(=O)O)c(Cl)c1Cl (stereo unspecified)"
  Activity (mL/min): 7
- COMPOUND: "CC(=O)C(=Cc1ccc(OCC(=O)O)c(Cl)c1Cl)C(C)=O"
  Activity (mL/min): 19
- COMPOUND: "CC(=O)C(=Cc1ccc(OC(C)C(=O)O)c(Cl)c1Cl)C(C)=O (stereo unspecified)"
  Activity (mL/min): 8
- COMPOUND: "CC(=O)C(C(C)=O)C(SCC(=O)O)c1ccc(OCC(=O)O)c(Cl)c1Cl (stereo unspecified)"
  Activity (mL/min): 4
- COMPOUND: "CSC(c1ccc(OCC(=O)O)c(Cl)c1Cl)C(C(C)=O)C(C)=O (stereo unspecified)"
  Activity (mL/min): 6
- COMPOUND: "CCC(=O)/C(=C/c1ccc(OCC(=O)O)c(Cl)c1Cl)C(C)=O"
  Activity (mL/min): 16
- COMPOUND: "C=C(CC)C(=O)c1ccc(OCC(=O)O)c(Cl)c1Cl"
  Activity (mL/min): 6
- COMPOUND: "CCC(=O)C(=Cc1ccc(OCC(=O)O)c(Cl)c1Cl)C(=O)CC"
  Activity (mL/min): 7
- COMPOUND: "CC(=O)C(=Cc1ccc(OCC(=O)O)c2ccccc12)C(C)=O"
  Activity (mL/min): 4

Continue with the next compound.
# lookup: Activity of CC(=O)C(=Cc1ccc(OCC(=O)O)cc1Cl)C(C)=O
11

----------
Tested on: Canis familiaris
Assay: Diuretic activity in mongrel dog anesthetized with sodium pentobarbital assessed as urine Cl- level at 1 mg/kg, iv measured after 15 to 45 mins post dose (reference value: 2 to 64 uequiv/min)
Type: functional, Canis lupus familiaris
Given measured Activity, output Satisfied if it is greater than or equal to 900 uEq/min and Not satisfied if not.

Use the examples below as a reference point.
- COMPOUND: "CCC(=O)/C(=C/c1ccc(OCC(=O)O)c(Cl)c1Cl)C(C)=O"
  SUBJECT OF TEST: "Canis familiaris"
  CATEGORY: "Satisfied"
- COMPOUND: "C=C(CC)C(=O)c1ccc(OCC(=O)O)c(Cl)c1Cl"
  SUBJECT OF TEST: "Canis familiaris"
  CATEGORY: "Not satisfied"
- COMPOUND: "CC(=O)C(C(C)=O)C(SCC(=O)O)c1ccc(OCC(=O)O)c(Cl)c1Cl (stereo unspecified)"
  SUBJECT OF TEST: "Canis familiaris"
  CATEGORY: "Satisfied"
- COMPOUND: "CSC(c1ccc(OCC(=O)O)c(Cl)c1Cl)C(C(C)=O)C(C)=O (stereo unspecified)"
  SUBJECT OF TEST: "Canis familiaris"
  CATEGORY: "Not satisfied"

API: above_or_equal(metric=Activity, cutoff=900 uEq/min) for item CC(=O)C(C(C)=O)C(SCCO)c1ccc(OCC(=O)O)c(Cl)c1Cl (stereo unspecified)
Not satisfied
